Each recorded value in this set is attributed to ChEMBL document CHEMBL4888484.

- System: Plasmodium falciparum
- test.name: Primary screen in NF54 nanoGlo assay, in single point, at 2uM, 72h
- Format: functional, Erythrocyte
- condition.info: timepoint 72 hour
Screen size: about 150,000 compounds; about 540 (0.36%) showed an effect of 50% or more. Many of the other results were omitted from the sample, so strong results are more common in it than they were.
Listed compounds paired with reported % Inhibition
Give just the numeric value; % need not be written.

Use the examples below as a reference point.
For O=C1NC(=O)c2ccc3c4c(ccc1c24)C(=O)N(c1ccccc1)C3=O , write its % Inhibition. 73

For Cn1c(=O)c2c(-c3ccc(Br)cc3)n(-c3ccccn3)cc2n(C)c1=O , write its % Inhibition. -5

New cases:
For C[C@H](NC(=O)CNC(C)(C)C)c1ccc(F)cc1F , write its % Inhibition. -4

For CC1(C)OCc2cc(CNc3ccc4oc(=O)[nH]c4c3)ccc2O1 , write its % Inhibition. 96

For Cn1c(=O)c2c(-c3ccc(Cl)cc3)n(-c3cccc4cccc(N)c34)cc2n(C)c1=O , write its % Inhibition. 96

For C=CCN1C(=O)OC(C)(CCC=C(C)C)C1(C)O (stereo not given) , write its % Inhibition. 76

For O=C1c2cc(Nc3ccccc3)c3c4c(cc(Nc5ccccc5)c(c24)C(=O)N1c1ccccc1)C(=O)N(c1ccccc1)C3=O , write its % Inhibition. 3

====

- Test system: Plasmodium falciparum
- test.name: Primary screen in NF54 nanoGlo assay, in single point, at 2uM, 72h
- Format: functional, Erythrocyte
- condition.info: timepoint 72 hour
The whole screen tested about 150,000 compounds, of which about 540 (0.36%) showed an effect of 50% or more. This excerpt belongs to a sample that is enriched for strong results.
endpoint: % Inhibition (%)
Give just the numeric value; % need not be written.

Use the examples below as a reference point.
For O=S(=O)(CCCOc1ccccc1)NC[C@H]1CCCN1c1ccccc1 , write its % Inhibition. -13

For CC(C)(C)OC(=O)N[C@@H]1CCCN(Cc2nc(-c3ccco3)no2)C1 , write its % Inhibition. -11

For Cc1nn(C)c(Cl)c1C(=O)Nc1ccc2ccccc2c1 , write its % Inhibition. 10

New cases:
For CC1(CO)CCCC1NCC(C)(O)C(F)(F)F (centres undefined) , write its % Inhibition. 33

For CN(C)c1noc(CN2CCc3c(F)cc(F)cc3C2)n1 , write its % Inhibition. 10

For c1ccc(CC2(c3nc(-c4cnccn4)no3)CCC2)cc1 , write its % Inhibition. 13

For Cn1nc(-c2nc(-c3cccc(F)c3)no2)c2c1CCN(C(=O)c1ccccn1)C2 , write its % Inhibition. 12

For COc1ccc(F)cc1S(=O)(=O)N1CCn2c(nn(C)c2=O)C1 , write its % Inhibition. -13

For Cn1cnc2c(NCC(=O)N3CCN(c4ccccc4)CC3)ncnc21 , write its % Inhibition. -1

For Cn1n[n+](CC(=O)Nc2ccccc2Cl)c2ccccc21 , write its % Inhibition. 41

For CN(C)c1noc(CN2CCc3ccc(F)cc3C2)n1 , write its % Inhibition. 51

For O=C(NCCN1CCCC1)c1ccc(-c2c(-c3ccc(F)cc3)ncn2C2CCCC2)o1 , write its % Inhibition. 5

For Nc1c(Br)cc2oc(-c3ccc4ccccc4c3)nc2c1Br , write its % Inhibition. 36
